- Protocol: Pharmacokinetic study of DMAPE in rats
- Assay type: in vivo, Sprague–Dawley rats
- Run Parameters: male, Sprague-Dawley; rat plasma, DMAPE 50 mg/kg intravenous
Reported half-life is given for each of the following molecules.
Give your result in h as a bare value.

Record Smiles: C=C1C(=O)OC[C@H]1C(c1cc(OC)c2c(c1)OCO2)c1cc(OC)c2c(c1)OCO2
Value Observed: 8.89

Field: next molecule
Q) I have this molecule here, COc1cc(C(c2cc(OC)c3c(c2)OCO3)[C@@H]2COC(=O)[C@H]2CN(C)CCO)cc2c1OCO2 , and I need its recorded half-life.
A) 4.33

====

- Protocol: Pharmacokinetic study of DMAPE in rats
- Type: in vivo, Sprague–Dawley rats
- Run Parameters: male, Sprague-Dawley, po; rat plasma, DMAPE 50 mg/kg intragastric
Reported AUC(0-inf) is given for each of the following compounds.
Give your result in ng·h/mL as a bare value.

Record Smiles: C=C1C(=O)OC[C@H]1C(c1cc(OC)c2c(c1)OCO2)c1cc(OC)c2c(c1)OCO2
Unit Annotation: ng·h/mL
AUC(0-inf): 10700

Field: next compound
Q) I have this compound here, COc1cc(C(c2cc(OC)c3c(c2)OCO3)[C@@H]2COC(=O)[C@H]2CN(C)CCO)cc2c1OCO2 , and I need its recorded AUC(0-inf).
A) 25400
